assay: Mice pharmacokinetic evaluation (LC-MS/MS of plasma); format: in vivo, ICR mice; settings: male, ICR, mouse, plasma, po, 10 mg/kg, oral 10 mg/kg, 12.0 h, Mean; read-out: Plasma concentration of active compound
observable: concentration at 12 h (ng/mL)
Reply with just the number (in ng/mL).

concentration at 12 h for CSc1nccc(N2CCC(N(C)Cc3ccc(C#N)cc3)CC2)n1 ?
0.5

----------
experiment: Mice pharmacokinetic evaluation (LC-MS/MS of plasma); format: in vivo, ICR mice; conditions: male, ICR, mouse, plasma, iv, 1 mg/kg, IV 1.0 mg/kg, Mean ± SD, n = 3; read-out: Cmax
observable: Cmax
Your answer should be a number followed by the unit of measure.

Cmax for CSc1nccc(N2CCC(N(C)Cc3ccc(C#N)cc3)CC2)n1 [Example 36] ?
78.1 ng/mL

----------
assay: Mice pharmacokinetic evaluation (LC-MS/MS of plasma); assay type: in vivo, ICR mice; conditions: male, ICR, mouse, plasma, iv, 1 mg/kg, IV 1.0 mg/kg, Mean ± SD, n = 3; read-out: MRT0-t
observable: MRT last (h)
Reply with just the number (in h).

MRT last for CSc1nccc(N2CCC(N(C)Cc3ccc(C#N)cc3)CC2)n1 ?
1.28

----------
test system: Huh-7; experiment: Extended test against tumor cell lines (ATPlite); assay type: cell-based; settings: Huh-7 (liver cancer), 0.25 μM, 72 hours
observable: Survival rate (%)
Reply with just the number (in %).

Survival rate for CSc1nccc(N2CCC(N(C)Cc3ccc(Cl)cc3Cl)CC2)n1 ?
87.3

Survival rate for CSc1nccc(N2CCC(N(C)Cc3c(F)cccc3Cl)CC2)n1 ?
82.3

Survival rate for CSc1nccc(N2CCC(N(C)Cc3ccccc3Cl)CC2)n1 ?
81.4

Survival rate for CSc1nccc(N2CCC(N(C)Cc3c(Cl)cccc3Cl)CC2)n1 ?
70.5

Survival rate for CSc1nccc(N2CCC(N(C)Cc3ccc(C#N)cc3)CC2)n1 ?
83.0

----------
test: Mice pharmacokinetic evaluation (LC-MS/MS of plasma); type: in vivo, ICR mice; details: male, ICR, mouse, plasma, iv, 1 mg/kg, intravenous 1.0 mg/kg, 6.0 h, Mean; read-out: Plasma concentration of active compound
observable: concentration at 6 h (ng/mL)
Reply with just the number (in ng/mL).

concentration at 6 h for CSc1nccc(N2CCC(N(C)Cc3ccc(C#N)cc3)CC2)n1 [Example 36] ?
7.53

----------
experiment: Mice pharmacokinetic evaluation (LC-MS/MS of plasma); type: in vivo, ICR mice; details: male, ICR, mouse, plasma, iv, 1 mg/kg, intravenous 1.0 mg/kg, 0.5 h, Mean; read-out: Plasma concentration of active compound
observable: concentration at 0.5 h (ng/mL)
Reply with just the number (in ng/mL).

concentration at 0.5 h for CSc1nccc(N2CCC(N(C)Cc3ccc(C#N)cc3)CC2)n1 ?
31.5

----------
system: MIA-PaCa-2; experiment: Extended test against tumor cell lines (ATPlite); format: cell-based; conditions: MIA-PaCa-2 (pancreatic cancer), 0.016 μM, 72 hours
observable: Survival rate (%)
Reply with just the number (in %).

For MIA-PaCa-2, provide Survival rate of CSc1nccc(N2CCC(N(C)Cc3ccccc3Cl)CC2)n1 please.
98.5

For MIA-PaCa-2, provide Survival rate of CSc1nccc(N2CCC(N(C)Cc3c(F)cccc3Cl)CC2)n1 please.
97.6

For MIA-PaCa-2, provide Survival rate of CSc1nccc(N2CCC(N(C)Cc3ccc(Cl)cc3Cl)CC2)n1 please.
94.6

For MIA-PaCa-2, provide Survival rate of CSc1nccc(N2CCC(N(C)Cc3c(Cl)cccc3Cl)CC2)n1 please.
97.6

For MIA-PaCa-2, provide Survival rate of CSc1nccc(N2CCC(N(C)Cc3ccc(C#N)cc3)CC2)n1 please.
91.6
